Reference source: patent US20210196796A1

For each of the binders below, state its Relative Proliferation Fold Change NKL 1:50.
- Target Under Test: T1, orthogonal hCD122 receptor (hoRb), hCD122 with H133D and Y134F (human, UniProt P14784 27-550)
- T1 sequence: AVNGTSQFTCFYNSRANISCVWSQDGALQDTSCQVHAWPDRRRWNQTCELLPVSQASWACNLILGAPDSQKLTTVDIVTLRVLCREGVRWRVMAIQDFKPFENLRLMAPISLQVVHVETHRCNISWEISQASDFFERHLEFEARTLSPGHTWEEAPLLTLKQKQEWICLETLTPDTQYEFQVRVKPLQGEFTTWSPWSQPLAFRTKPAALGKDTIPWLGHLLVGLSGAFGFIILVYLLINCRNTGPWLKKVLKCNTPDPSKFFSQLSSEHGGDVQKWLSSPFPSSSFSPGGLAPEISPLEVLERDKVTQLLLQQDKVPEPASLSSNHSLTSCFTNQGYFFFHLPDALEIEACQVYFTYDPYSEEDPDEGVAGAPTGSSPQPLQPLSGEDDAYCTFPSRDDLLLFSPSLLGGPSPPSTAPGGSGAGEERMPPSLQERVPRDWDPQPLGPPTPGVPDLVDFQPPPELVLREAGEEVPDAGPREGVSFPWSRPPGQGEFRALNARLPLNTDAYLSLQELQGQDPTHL
- Procedure Text: cell-based or functional assay
Please answer using a numeric value trailed by its unit.

Use the examples below as a reference point.
| Binder | Assay Value |
| --- | --- |
| T3A, SQVLKA (ligand) APASSSTKKTQLQLSQLLVLLKAILNGINNYKNPKLTRMLTFKFYMPKKATELKHLQCLEEELKPLEEVLNLAQSKNFHLRPRDLISNINVIVLELKGSETTFMCEYADETATIVEFLNRWITFCQSIISTLT | 2.67 fold |
| SQVSKA (ligand) APTSSSTKKTQLQLSQLLVSLKAILNGINNYKNPKLTRMLTFKFYMPKKATELKHLQCLEEELKPLEEVLNLAQSKNFHLRPRDLISNINVIVLELKGSETTFMCEYADETATIVEFLNRWITFCQSIISTLT | 1.91 fold |
| R38W, SQVLKA (ligand) APTSSSTKKTQLQLSQLLVLLKAILNGINNYKNPKLTWMLTFKFYMPKKATELKHLQCLEEELKPLEEVLNLAQSKNFHLRPRDLISNINVIVLELKGSETTFMCEYADETATIVEFLNRWITFCQSIISTLT | 0.77 fold |

Hey, can you go through the list below and give me Relative Proliferation Fold Change NKL 1:50 for every item?
1. TQVLKA (ligand) APTSSSTKKTQLQLTQLLVLLKAILNGINNYKNPKLTRMLTFKFYMPKKATELKHLQCLEEELKPLEEVLNLAQSKNFHLRPRDLISNINVIVLELKGSETTFMCEYADETATIVEFLNRWITFCQSIISTLT
2. Q126C, SQVLKA (ligand) APTSSSTKKTQLQLSQLLVLLKAILNGINNYKNPKLTRMLTFKFYMPKKATELKHLQCLEEELKPLEEVLNLAQSKNFHLRPRDLISNINVIVLELKGSETTFMCEYADETATIVEFLNRWITFCCSIISTLT
3. T3D, SQVLKA (ligand) APDSSSTKKTQLQLSQLLVLLKAILNGINNYKNPKLTRMLTFKFYMPKKATELKHLQCLEEELKPLEEVLNLAQSKNFHLRPRDLISNINVIVLELKGSETTFMCEYADETATIVEFLNRWITFCQSIISTLT

1.75 fold
0.49 fold
2.34 fold

Hey, can you go through the list below and give me Relative Proliferation Fold Change NKL 1:50 for every item?
1. SQVLKT (ligand) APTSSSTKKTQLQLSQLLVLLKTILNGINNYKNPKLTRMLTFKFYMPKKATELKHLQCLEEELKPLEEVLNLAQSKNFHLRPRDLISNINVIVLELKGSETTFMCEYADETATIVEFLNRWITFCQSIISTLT
2. SQVLKV (ligand) APTSSSTKKTQLQLSQLLVLLKVILNGINNYKNPKLTRMLTFKFYMPKKATELKHLQCLEEELKPLEEVLNLAQSKNFHLRPRDLISNINVIVLELKGSETTFMCEYADETATIVEFLNRWITFCQSIISTLT
3. ΔT3, SQVLKA (ligand) APSSSTKKTQLQLSQLLVLLKAILNGINNYKNPKLTRMLTFKFYMPKKATELKHLQCLEEELKPLEEVLNLAQSKNFHLRPRDLISNINVIVLELKGSETTFMCEYADETATIVEFLNRWITFCQSIISTLT
4. SQVLKS (ligand) APTSSSTKKTQLQLSQLLVLLKSILNGINNYKNPKLTRMLTFKFYMPKKATELKHLQCLEEELKPLEEVLNLAQSKNFHLRPRDLISNINVIVLELKGSETTFMCEYADETATIVEFLNRWITFCQSIISTLT
5. SQVLKQ (ligand) APTSSSTKKTQLQLSQLLVLLKQILNGINNYKNPKLTRMLTFKFYMPKKATELKHLQCLEEELKPLEEVLNLAQSKNFHLRPRDLISNINVIVLELKGSETTFMCEYADETATIVEFLNRWITFCQSIISTLT
6. R81D, SQVLKA (ligand) APTSSSTKKTQLQLSQLLVLLKAILNGINNYKNPKLTRMLTFKFYMPKKATELKHLQCLEEELKPLEEVLNLAQSKNFHLDPRDLISNINVIVLELKGSETTFMCEYADETATIVEFLNRWITFCQSIISTLT
7. Q74H, SQVLKA (ligand) APTSSSTKKTQLQLSQLLVLLKAILNGINNYKNPKLTRMLTFKFYMPKKATELKHLQCLEEELKPLEEVLNLAHSKNFHLRPRDLISNINVIVLELKGSETTFMCEYADETATIVEFLNRWITFCQSIISTLT

1. 2.5 fold
2. 2 fold
3. 1.99 fold
4. 2.11 fold
5. 3.05 fold
6. 3.07 fold
7. 1.6 fold

Supply Relative Proliferation Fold Change NKL 1:50 value. Item: M104A, SQVLKA (ligand) APTSSSTKKTQLQLSQLLVLLKAILNGINNYKNPKLTRMLTFKFYMPKKATELKHLQCLEEELKPLEEVLNLAQSKNFHLRPRDLISNINVIVLELKGSETTFACEYADETATIVEFLNRWITFCQSIISTLT
2.09 fold
